Tested on: Nostz rat
Assay: Antidiabetic activity in the Nostz rat (non-insulin-dependent diabetes induced using streptozotocin)
Assay type: in vivo
Details: po, 2 h, 20 mg/kg/d oral, d1 (one day of treatment), blood 2 h after final administration, diabetic rats, read-out: percentage change in glycaemia relative to d0 (before treatment)
property: change in vivo at 20 mg/kg (%)
Numbers only, in %.

Some solved cases for reference:
-- ask Return value of change in vivo at 20 mg/kg for input N=C(N)NCC(=O)N(Cc1ccccc1)Cc1ccccc1 [Compound 11] , no commentary.
-- reply -14

-- ask Return value of change in vivo at 20 mg/kg for input Cc1cccc(C)c1NC(=O)CNC(=N)N [Example 1] , no commentary.
-- reply -3

-- ask Return value of change in vivo at 20 mg/kg for input N=C(N)NCC(=O)Nc1c(Cl)cccc1Cl [Compound 12] , no commentary.
-- reply -9

-- ask Return value of change in vivo at 20 mg/kg for input Cc1cccc(C)c1NC(=O)CN(C)C(=N)N [Example 5] , no commentary.
-- reply -2

-- ask Return value of change in vivo at 20 mg/kg for input Cc1cccc(C)c1NC(=O)[C@H](C(C)C)N(C)C(=N)N [Compound 10] , no commentary.
-- reply -13

Record change in vivo at 20 mg/kg per entry; entries follow.
1. Cc1cc(C)c(NC(=O)CNC(=N)N)c(C)c1 [Compound 7]
2. Cc1cccc(C)c1NC(=O)[C@H](C)NC(=N)N [Compound 6]
3. Cc1cccc(C)c1NC(=O)[C@H](CC(C)C)NC(=N)N [Compound 9]
4. CSc1cc(C)nc(SC)c1NC(=O)CNC(=N)N [Example 3]
5. Cc1cccc(C)c1NC(=O)CCNC(=N)N [Example 4]
6. CCC(C)[C@H](NC(=N)N)C(=O)Nc1c(C)cccc1C (some centres unmarked) [Compound 8]

-- reply
1. -9
2. 8
3. -4
4. 7
5. -1
6. -11

The reported numbers originate from patent US6518458B1.
